# Tested on: A431 cells
# ASSAY PROCEDURE: MTT antiproliferative assay, A431 cells
# Assay type: cell-based
# CONDITIONS: Homo sapiens, A-431; MTT, 72 h of treatment, mean ± SD of at least three independent experiments; read-out: IC50 (µM) A431
MEASURED ATTRIBUTE: IC50 (µM)

1. C#Cc1cccc(Nc2ncnc3ccc(-c4ccc(CNCCN(CC)CC)o4)cc23)c1
2. CCN(CC)CCNCc1ccc(-c2ccc3ncnc(Nc4ccc(F)c(Cl)c4)c3c2)o1
# input // pick larger IC50 from pair: 1 vs 2 In your reply, give the label of the chosen option.
# output 2
(2: 3.92 µM, 1: 2.59 µM)
